Test system: Clone20-Shn3RL cells, Renilla luciferase luminescence, 24 h
Assay: control 3'UTR Renilla luciferase suppression, dose response, counter-screen for Shn3 inhibitor project, cell-based, Clone20-Shn3RL, cherry-picked (AID 624133)
Recorded metric: AC50

Asked: # query: AC50 of entry CC1=CC2OC3CC4OC(=O)C=CC=CC(=O)OCCC(C)C(O)C(=O)OCC2(CC1O)C4(C)C31CO1 (stereo not drawn)
Given back: 4.79 µM

Asked: Please look up its AC50: CC1=CC2OC3CC4OC(=O)C=CC=CC(C(C)O)OCC(O)C5(C)OC5C(=O)OCC2(CC1O)C4(C)C31CO1 (stereo not drawn)
Given back: < 0.26 µM

Asked: // lookup AC50 for CC1=CC2OC3CC4OC(=O)C=CC=CC(C(C)O)OCC(O)C(C)CC(=O)OCC2(CC1O)C4(C)C31CO1 (stereo not drawn)
Given back: < 0.26 µM

Asked: Find the recorded AC50 belonging to CC(=O)OCC12CC(OC(=O)CC(C)C)C(C)=CC1OC1C(O)C(OC(C)=O)C2(C)C12CO2 (stereo not drawn) and report it.
Given back: < 0.26 µM

Asked: For the compound shown here, CC(=O)OC[C@]12CCC(C)=C[C@H]1O[C@@H]1[C@H](O)[C@@H](OC(C)=O)[C@@]2(C)[C@]12CO2 , give the reported AC50.
Given back: < 0.26 µM

Asked: Look up AC50 for this compound: C[C@H]1[C@@H](OS(=O)(=O)O)C[C@@H]2C[C@H]([C@@H](O)c3cc(=O)[nH]c(=O)[nH]3)NC3=NC[C@H]1N32
Given back: 3.1 µM

Asked: Which AC50 is reported for this compound? CC(=O)OC1CC2OC3C=C(C)CCC3(C)C1(C)C21CO1 (stereo not drawn)
Given back: 3.25 µM

Asked: Any idea what AC50 was measured for CC(=O)OC1C(=O)OCC23CCC4(C)OC4C2OC2CC(OC(=O)C=CC=CC(=O)OCCC1C)C3(C)C21CO1 (stereo not drawn) ?
Given back: < 0.26 µM
